# System: Enterococcus
# assay.overview: Antibacterial activity against Enterococcus 60 assessed as bacterial growth inhibition in presence of 50 ug/ml calcium ions by CLSI protocol based broth microdilution method
# Type: functional
measured.metric: MIC

Solved cases (3 shown):
>  <chemical.string>
CCCCCCCCCC(=O)N[C@@H](Cc1c[nH]c2ccccc12)C(=O)N[C@@H](CC(N)=O)C(=O)N[C@@H](CC(=O)O)C(=O)N[C@@H]1C(=O)NCC(=O)N[C@@H](CCCN)C(=O)N[C@@H](CC(N)=O)C(=O)N[C@H](C)C(=O)N[C@@H](CC(N)=O)C(=O)NCC(=O)N[C@H](CO)C(=O)N[C@@H]([C@@H](C)CC(=O)O)C(=O)N[C@@H](CC(=O)c2ccccc2N)C(=O)O[C@@H]1C

>  <MIC>
≥ 32 µg/mL

$$$$
>  <chemical.string>
CCCCCCCCCC(=O)N[C@@H](C)C(=O)N[C@@H](CC(N)=O)C(=O)N[C@@H](CC(=O)O)C(=O)N[C@@H]1C(=O)NCC(=O)N[C@@H](CCCN)C(=O)N[C@@H](CC(=O)O)C(=O)N[C@H](C)C(=O)N[C@@H](CC(=O)O)C(=O)NCC(=O)N[C@H](CO)C(=O)N[C@@H]([C@@H](C)CC(=O)O)C(=O)N[C@@H](CC(=O)c2ccccc2N)C(=O)O[C@@H]1C

>  <MIC>
≥ 64 µg/mL

$$$$
>  <chemical.string>
CCCCCCCCCC(=O)N[C@@H](Cc1c[nH]c2ccccc12)C(=O)N[C@@H](CC(N)=O)C(=O)N[C@@H](CC(=O)O)C(=O)N[C@@H]1C(=O)NCC(=O)N[C@@H](CC(=O)O)C(=O)N[C@@H](CC(=O)O)C(=O)N[C@H](C)C(=O)N[C@@H](CC(=O)O)C(=O)NCC(=O)N[C@H](CO)C(=O)N[C@@H]([C@@H](C)CC(=O)O)C(=O)N[C@@H](CC(=O)c2ccccc2N)C(=O)O[C@@H]1C

>  <MIC>
≥ 32 µg/mL

$$$$

Notebook: CCCCCCCCCC(=O)N[C@@H](Cc1c[nH]c2ccccc12)C(=O)N[C@@H](CC(N)=O)C(=O)N[C@@H](CC(=O)O)C(=O)N[C@@H]1C(=O)NCC(=O)N[C@@H](CO)C(=O)N[C@@H](CC(=O)O)C(=O)N[C@H](C)C(=O)N[C@@H](CC(=O)O)C(=O)NCC(=O)N[C@H](CO)C(=O)N[C@@H]([C@@H](C)CC(=O)O)C(=O)N[C@@H](CC(=O)c2ccccc2N)C(=O)O[C@@H]1C , MIC read as ≥ 32 µg/mL

###

# System: Enterococcus
# assay.overview: Antibacterial activity against Enterococcus 60 assessed as bacterial growth inhibition in presence of 50 ug/ml calcium ions by CLSI protocol based broth microdilution method
# Format: functional
Measured MIC of individual entries

>  <chemical.string>
CCCCCCCCCC(=O)N[C@@H](Cc1c[nH]c2ccccc12)C(=O)N[C@@H](CC(N)=O)C(=O)N[C@@H](CC(=O)O)C(=O)N[C@@H]1C(=O)NCC(=O)N2CCC[C@H]2C(=O)N[C@@H](CC(=O)O)C(=O)N[C@H](C)C(=O)N[C@@H](CC(=O)O)C(=O)NCC(=O)N[C@H](CO)C(=O)N[C@@H]([C@@H](C)CC(=O)O)C(=O)N[C@@H](CC(=O)c2ccccc2N)C(=O)O[C@@H]1C

>  <assayed.system>
Enterococcus

>  <MIC>
≥ 32 µg/mL

$$$$

GET /values?item= CCCCCCCCCC(=O)N[C@@H](Cc1c[nH]c2ccccc12)C(=O)N[C@@H](CC(N)=O)C(=O)N[C@@H](CC(=O)O)C(=O)N[C@@H]1C(=O)NCC(=O)N[C@@H](CCCCN)C(=O)N[C@@H](CC(=O)O)C(=O)N[C@H](C)C(=O)N[C@@H](CC(=O)O)C(=O)NCC(=O)N[C@H](CO)C(=O)N[C@@H]([C@@H](C)CC(=O)O)C(=O)N[C@@H](CC(=O)c2ccccc2N)C(=O)O[C@@H]1C &system= Enterococcus returns MIC: 16 µg/mL

GET /values?item= CCCCCCCCCC(=O)N[C@@H](Cc1c[nH]c2ccccc12)C(=O)N[C@@H](CC(N)=O)C(=O)N[C@@H](CC(=O)O)C(=O)N[C@@H]1C(=O)NCC(=O)N[C@@H](CCCN)C(=O)N[C@@H](CC(=O)O)C(=O)N[C@H](C)C(=O)N[C@@H](CC(=O)O)C(=O)N(C)CC(=O)N[C@H](CO)C(=O)N[C@@H]([C@@H](C)CC(=O)O)C(=O)N[C@@H](CC(=O)c2ccccc2N)C(=O)O[C@@H]1C &system= Enterococcus returns MIC: ≥ 32 µg/mL
